- Tested on: C. albicans CAI4 (IFM 61937)
- Condition details: Table 2; synthetic partial peptides against C. albicans, OD650; tested up to 25 μM
Where a SMILES comes first, the peptide text is derived from it.
Overview of reported pIC50 across a group of compounds:
Entry type: numeric. Quantity: pIC50, the -log10 of concentration in molar units.

CC(C)C[C@H](NC(=O)CNC(=O)[C@H](Cc1c[nH]cn1)NC(=O)[C@H](CO)NC(=O)[C@@H](N)CCCCN)C(=O)N[C@@H](CCC(=O)O)C(=O)N[C@@H](CCCNC(=N)N)C(=O)N[C@@H](CCCCN)C(=O)N[C@@H](CS)C(=O)N[C@@H](Cc1ccccc1)C(=O)O [peptide 7] (H-KSHGLERKCF-OH) = 5.00
CSCC[C@H](NC(=O)CNC(=O)[C@H](CCCCN)NC(=O)[C@H](Cc1ccccc1)NC(=O)[C@H](CCCNC(=N)N)NC(=O)[C@H](Cc1c[nH]cn1)NC(=O)[C@@H](N)CO)C(=O)N[C@@H](CS)C(=O)N[C@H](C(=O)N[C@@H](CO)C(=O)O)C(C)C [compound 2] (H-SHRFKGMCVS-OH) = 4.72

Continue with the next compound.
*Q* Record request: pIC50 value, item CC(C)C[C@H](NC(=O)[C@H](CS)NC(=O)[C@H](Cc1c[nH]cn1)NC(=O)[C@@H](N)CCCNC(=N)N)C(=O)N[C@@H](CO)C(=O)N[C@@H](CCC(N)=O)C(=O)N[C@@H](CO)C(=O)N[C@@H](Cc1c[nH]cn1)C(=O)N[C@@H](CCCNC(=N)N)C(=O)N[C@@H](Cc1ccccc1)C(=O)O [peptide 1] (H-RHCLSQSHRF-OH)
*A* 5.22

----------
Overview of reported IC50 across a group of molecules:
- System: C. albicans CAI4 (IFM 61937)
- Condition details: Table 2; synthetic partial peptides against C. albicans, OD650; tested up to 25 μM
Where a SMILES comes first, the peptide text is derived from it.

Examples from the recorded data:
NCCCC[C@H](NC(=O)[C@H](CS)NC(=O)[C@H](CCC(=O)O)NC(=O)CNC(=O)[C@H](CC(=O)O)NC(=O)[C@@H]1CCCN1C(=O)[C@@H](N)Cc1ccccc1)C(=O)N[C@@H](CO)C(=O)N[C@@H](Cc1c[nH]cn1)C(=O)NCC(=O)O [compound 6] (H-FPDGECKSHG-OH) = > 25 µM
CC(C)[C@H](N)C(=O)N[C@@H](CO)C(=O)N[C@@H](CO)C(=O)N[C@@H](CC(N)=O)C(=O)N[C@@H](CC(N)=O)C(=O)N[C@@H](CS)C(=O)N[C@@H](C)C(=O)N[C@@H](CC(N)=O)C(=O)N[C@H](C(=O)O)C(C)C [compound 3] (H-VSSNNCANV-OH) = > 25 µM

Continue with the next molecule.
*Q* Record request: IC50 value, item C[C@@H](O)[C@H](NC(=O)[C@@H](N)CCCNC(=N)N)C(=O)N[C@@H](CCC(=O)O)C(=O)N[C@@H](CO)C(=O)N[C@@H](Cc1ccccc1)C(=O)N1CCC[C@H]1C(=O)N[C@@H](CC(=O)O)C(=O)NCC(=O)N[C@@H](CCC(=O)O)C(=O)O [compound 5] (H-RTESFPDGE-OH)
*A* > 25 µM
